Source listed as patent US20260062412A1.

target: MYT1 protein (Homo sapiens (Human)); assay: Test for binding to ATP binding site of MYT1 (Kinase Tracer 178 / Eu-Anti-GST antibody TR-FRET); conditions: ATP binding site of MYT1, 30 minutes at room temperature
Sequence (Q99640 whole entry): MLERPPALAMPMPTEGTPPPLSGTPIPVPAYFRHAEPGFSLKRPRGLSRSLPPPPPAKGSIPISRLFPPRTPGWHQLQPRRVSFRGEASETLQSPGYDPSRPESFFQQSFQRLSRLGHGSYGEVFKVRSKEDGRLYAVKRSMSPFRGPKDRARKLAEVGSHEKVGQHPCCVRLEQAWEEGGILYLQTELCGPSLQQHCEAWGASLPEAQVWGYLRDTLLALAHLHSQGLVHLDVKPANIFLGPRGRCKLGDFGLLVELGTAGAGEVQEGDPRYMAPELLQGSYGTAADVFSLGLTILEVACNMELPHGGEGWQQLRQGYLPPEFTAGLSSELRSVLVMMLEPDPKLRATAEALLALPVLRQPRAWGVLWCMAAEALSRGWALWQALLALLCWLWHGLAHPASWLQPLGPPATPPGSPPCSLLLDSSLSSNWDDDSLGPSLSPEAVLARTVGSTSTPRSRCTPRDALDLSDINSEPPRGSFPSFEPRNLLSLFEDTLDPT
Catalogue of compounds with associated IC50

# compound, units_text, IC50
measured = [
    ("N#Cc1cc2c(-c3ccc(F)c4[nH]ncc34)c(N)c(=O)[nH]c2c2ccccc12 [Compound B26]", "nM", 10),
    ("Nc1c(-c2ccc(F)c3[nH]ncc23)c2cc(CCCF)c3ncccc3c2[nH]c1=O [Compound C160]", "nM", 2.5),
    ("N#Cc1cc2c(-c3cccc(O)c3)c(N)c(=O)[nH]c2c2ccccc12 [Compound B7]", "nM", 6),
    ("Cn1cc(-c2cc3c(-c4cc(F)c(F)c5[nH]ncc45)c(N)c(=O)[nH]c3c3cccnc23)cn1 [Compound C207]", "nM", 1),
]
